- System: Escherichia coli TOP10;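 note: peptides expressed intracellularly from a pBAD plasmid library in pooled LB shake-flask culture, induced with 0.3% L-arabinose, DNA abundance read by NGS, three biological replicates, DESeq2 with apeglm shrinkage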
- METHOD: shrunken log2 fold change of peptide-encoding DNA abundance (4.5 h post-induction vs induction); higher = less antimicrobial activity (less host growth inhibition)
- MEASUREMENT_CONTEXT: time post-induction: 4.5 h; library: site-saturation at positions 5, 18, 19, 20
Each entry below carries its recorded shrunken log2 fold change.
Form rule: numeric answer, no unit written next to it.

Some solved entries appear below for comparison.
RRIRGRPPRLPRPRPRPDCFPRP; 1.13
RRIRSRPPRLPRPRPRPMALPRP; 0.213
RRIRNRPPRLPRPRPRPDISPRP; 0.000389

Would you kindly share the measured shrunken log2 fold change for "RRIRCRPPRLPRPRPRPPISPRP" ?
-0.38

Would you kindly share the measured shrunken log2 fold change for "RRIRFRPPRLPRPRPRPGMQPRP" ?
0.237

Would you kindly share the measured shrunken log2 fold change for "RRIRTRPPRLPRPRPRPQIKPRP" ?
-0.0374
